target: T1, human apical domain of CD71 (human, UniProt P02786 189-383, limits assumed); assay: primary ELISA; signal over HSA control
T1 construct: domain: apical domain
T1 sequence (P02786 189-383 limits assumed): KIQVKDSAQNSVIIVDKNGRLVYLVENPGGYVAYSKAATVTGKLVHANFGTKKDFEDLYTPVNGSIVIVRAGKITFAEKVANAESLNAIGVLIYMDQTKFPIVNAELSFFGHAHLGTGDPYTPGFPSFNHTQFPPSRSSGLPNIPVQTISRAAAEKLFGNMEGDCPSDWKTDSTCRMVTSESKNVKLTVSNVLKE
measured-attribute: Apical domain:HSA (ratio)
API: value field is a number in ratio; no unit string.

# get_value(readout='Apical domain:HSA', item= CD71-binding FN3 domain SEQ ID NO 417 (designed binder) MLPAPKNLVVSRVTEDSARLSWTAPDAAFDSFFIGYLEPQPPGEAIQLFVPGSERSYDLTGLKPGTEYNVTIQGVKGGFPSDPLVASFTT )
417

# get_value(readout='Apical domain:HSA', item= CD71-binding FN3 domain SEQ ID NO 401 (designed binder) MLPAPKNLVVSRVTEDSARLSWTAPDAAFDSFFIGYLEPQPPGEAIALWVPGSERSYDLTGLKPGTEYNITIQGVKGGFPSMPLVANFTT )
42

# get_value(readout='Apical domain:HSA', item= CD71-binding FN3 domain SEQ ID NO 393 (designed binder) MLPAPKNLVVSRVTEDSARLSWTAPDAAFDSFFIGYLEPQPPGEAIGLFVPGSERSYDLTGLKPGTEYNVTIQGVKGGFPSLPLQAHFTT )
58

# get_value(readout='Apical domain:HSA', item= CD71-binding FN3 domain SEQ ID NO 383 (designed binder) MLPAPKNLVVSRVTEDSARLSWTAPDAAFDSFFIGYLEPQPPGEAIDLWVPGSERSYDLTGLKPGTEYNVTIQGVKGGFPSLPLDAVFTT )
220

# get_value(readout='Apical domain:HSA', item= CD71-binding FN3 domain SEQ ID NO 381 (designed binder) MLPAPKNLVVSRVTEDSARLSWTAPDAAFDSFEIAYQELSLWGEAIVLTVPGSERSYDLTGLKPGTEYYVHIGGVKGGIWSRPLSAIFTT )
227

# get_value(readout='Apical domain:HSA', item= CD71-binding FN3 domain SEQ ID NO 443 (designed binder) MLPAPKNLVVSRVTEDSARLSWTAPDAAFDSFFIGYLEPQPPGEAIELYVPGSERSYDLTGLKPGTEYNVTIQGVKGGFPSDPLHAAFTT )
116

# get_value(readout='Apical domain:HSA', item= CD71-binding FN3 domain SEQ ID NO 429 (designed binder) MLPAPKNLVVSRVTEDSARLSWTAPDAAFDSFEIGYFERSFYGEAIILFVPGSERSYDLTGLKPGTEYAVWIGGVKGGVWSRPLSAIFTT )
280

# get_value(readout='Apical domain:HSA', item= CD71-binding FN3 domain SEQ ID NO 431 (designed binder) MLPAPKNLVVSRVTEDSARLSWTAPDAAFDSFFIGYLEPQPPGEAIVLFVPGSERSYDLTGLKPGTEYNVTIQGVKGGFPSNPLSAISTT )
88

# get_value(readout='Apical domain:HSA', item= CD71-binding FN3 domain SEQ ID NO 400 (designed binder) MLPAPKNLVVSRVTEDSARLSWTAPDAAFDSFFIGYLEPQPPGEAIHLFVPGSERSYDLTGLKPGTEYNVTIQGVKGGFPSGPLHATFTT )
163

# get_value(readout='Apical domain:HSA', item= CD71-binding FN3 domain SEQ ID NO 427 (designed binder) MLPAPKNLVVSRVTEDSARLSWTAPDAAFDSFFIGYLEPQPPGEAIHLRVPGSERSYDLTGLKPGTEYNVTIQGVKGGFPSDPLIAVFTT )
612

# get_value(readout='Apical domain:HSA', item= CD71-binding FN3 domain SEQ ID NO 415 (designed binder) MLPAPKNLVVSRVTEDSARLSWTAPDAAFDSFFIGYLEPQPPGEAIHLQVPGSERSYDLTGLKPGTEYNVTIQGVKGGFPSMPLSAIFTT )
516

# get_value(readout='Apical domain:HSA', item= CD71-binding FN3 domain SEQ ID NO 418 (designed binder) MLPAPKNLVVSRVTEDSARLSWTAPDAAFDSFEIAYFENSYYGEAIVLTVPGSERSYDLTGLKPGTEYAVYIGGVKGGSWSNPLSAISTT )
77

# get_value(readout='Apical domain:HSA', item= CD71-binding FN3 domain SEQ ID NO 399 (designed binder) MLPAPKNLVVSRVTEDSARLSWTAPDAAFDSFFIGYLEPQPPGEAITLYVPGSERSYDLTGLKPGTEYNVTIQGVKGGFPSTPLTATFTT )
255

# get_value(readout='Apical domain:HSA', item= CD71-binding FN3 domain SEQ ID NO 370 (designed binder) MLPAPKNLVVSRVTEDSARLSWTAPDAAFDSFYIAYAEPRPDGEAIVLVVPGSERSYDLTGLKPGTEYSVLIHGVKGGLLSSPLSAHFTT )
480

# get_value(readout='Apical domain:HSA', item= CD71-binding FN3 domain SEQ ID NO 374 (designed binder) MLPAPKNLVVSRVTEDSARLSWTAPDAAFDSFYIAYAEPRPDGEAIQLSVPGSERSYDLTGLKPGTEYSVLIHGVKGGLLSSPLHASFTT )
277

# get_value(readout='Apical domain:HSA', item= CD71-binding FN3 domain SEQ ID NO 382 (designed binder) MLPAPKNLVVSRVTEDSARLSWTAPDAAFDSFFIGYLEPQPPGEAIELYVPGSERSYDLTGLKPGTEYNVTIQGVKGGFPSDPLEADFTT )
203

# get_value(readout='Apical domain:HSA', item= CD71-binding FN3 domain SEQ ID NO 411 (designed binder) MLPAPKNLVVSRVTEDSARLSWTAPDAAFDSFFIGYLEPQPPGEAISLFVPGSERSYDLTGLKPGTEYNVTIQGVKGGFPSVPLSATFTT )
318

# get_value(readout='Apical domain:HSA', item= CD71-binding FN3 domain SEQ ID NO 350 (designed binder) MLPAPKNLVVSRVTEDSARLSWTAPDAAFDSFFIGYLEPQPPGEAISLFVPGSERSYDLTGLKPGTEYNVTIQGVKGGFPSMPLVAQFTT )
143
